PROTOCOL_SUMMARY: NCI Yeast Anticancer Drug Screen. Data for the mlh1 rad18 strain (AID 175)
RUN_CONDITIONS: S. cerevisiae mlh1 rad18 strain growth inhibition; at 50.0 µM (retest, dose inferred, filed as 5.0); active compounds read high
Protocol: Growth inhibition of yeast strains with defined genetic alterations is measured as a screen for potential anti-cancer activity. Selected strains with alterations in DNA damage repair or cell cycle control were exposed to compounds and growth inhibition was measured relative to vehicle treated controls. The strain used in this assay is mlh1 rad18
Compounds without any hit were thinned out: in the full panel of roughly 79,000, 15% have a hit.
MEASURED_PARAMETER: growth inhibition (%)
Just the number please, in %, no unit attached.

Input line: Please give the measured growth inhibition for this compound: CCN(CC)CCC(=O)c1ccc(Oc2ccc(C)cc2)cc1
Output line: 81

Input line: Moving on to CC(C)(C)c1ccc(O)c(CN(Cc2c(O)ccc3ccccc23)C2CCCCC2)c1
Output line: 99

Input line: Moving on to COC(=O)c1ccccc1CC(Cc1ccc2c(c1)CCC2)C(=O)OC (centres undefined)
Output line: 15

Input line: Moving on to CCCCCC(/C=N/Nc1nc(C)cc(=O)[nH]1)=C\c1ccccc1
Output line: 37

Input line: Moving on to O=C(CC(=O)c1ccccc1NC1=Cc2ccccc2C(=O)C1=O)C(=O)NC1=C(Cl)C(=O)c2ccccc2C1=O
Output line: 90

Input line: Moving on to CCOCCNc1ncnc2c1cnn2C
Output line: -1

Input line: Moving on to COc1ccccc1NC(=O)CSC(N)=O
Output line: 21

Input line: Moving on to C/C(=C\N1CCN(c2ccc(Cl)cc2)C(C)C1)C(=O)c1ccccc1 (centres undefined)
Output line: 87

Input line: Moving on to CCOc1ccc2nc([NH-])sc2c1.CCOc1ccc2nc([NH-])sc2c1.CCOc1ccc2nc([NH-])sc2c1.CCOc1ccc2nc([NH-])sc2c1.[Cl][Rh][Cl]
Output line: 81

Input line: Moving on to Clc1ccc(C2=CCCc3ccccc32)cc1
Output line: 3

Input line: Moving on to Cc1ccccc1C1c2c(C)cccc2C(=O)CC1CC(=O)O (centres undefined)
Output line: 83

Input line: Moving on to CC(=O)Nc1cc(Cl)c2c(c1)C(=O)c1ccccc1-2
Output line: 79

Input line: Moving on to CC(C)SC(=S)S(=O)(=O)c1ccc(Cl)cc1
Output line: 76

Input line: Moving on to CCOC(=O)c1c(N)sc2c1CCCCC2
Output line: -88

Input line: Moving on to Cc1ccc(C(c2ccc(N(C)C)cc2)c2ccc(N(C)C)cc2)cc1
Output line: 92

Input line: Moving on to CC(C)c1ccc(C(C)C)c(O)c1O
Output line: 94

Input line: Moving on to COC(=O)c1n[nH]c(C(C)C)c1N=NN(C)C
Output line: 96

Input line: Moving on to C/C=C/C/S(=N\S(=O)(=O)c1ccc(C)cc1)c1ccccc1 (centres undefined)
Output line: 95

Input line: Moving on to CC1OC(c2ccc3c(c2)OCO3)OC1C (centres undefined)
Output line: 0

###

PROTOCOL_SUMMARY: NCI Yeast Anticancer Drug Screen. Data for the mlh1 rad18 strain (AID 175)
RUN_CONDITIONS: S. cerevisiae mlh1 rad18 strain growth inhibition; at 5.0 µM (retest, dose inferred, filed as 0.5)
The panel holds about 79,000 compounds, 15% with a hit somewhere; the sample as a whole holds those more often. Active and inactive are the calls of the source. No stated cut-off is given here; in the data, active means growth inhibition above about 70%; inactive means the rest.
// one of active, inactive, no free text

Input line: Identify the outcome logged in this assay for the compound shown: O=C1C=CC(=Nc2cccc3c2-c2ccccc2C3)O1
Output line: active

Input line: Moving on to CC(C)(CC(=O)NNc1ccccc1)C(=O)O
Output line: inactive

Input line: Moving on to O=[N+]([O-])c1cccc(S(=O)(=O)Cl)c1
Output line: inactive

Input line: Moving on to Cc1c(N=Nc2ccc(Br)cc2)c(-c2ccccc2)nn1C(=S)S
Output line: inactive

Input line: Moving on to Cc1c(N)nc(C(CC(N)=O)NCC(N)C(N)=O)nc1C(=O)NC(C(=O)NC(C)C(O)C(C)C(=O)NC(C(=O)NCCc1nc(-c2nc(C(=O)NCCCNCCCc3ccccn3)cs2)cs1)C(C)O)C(OC1OC(CO)C(O)C(O)C1OC1OC(CO)C(O)C(OC(N)=O)C1O)c1cnc[nH]1 (stereo not given)
Output line: active

###

PROTOCOL_SUMMARY: NCI Yeast Anticancer Drug Screen. Data for the cln2 rad14 strain (AID 165);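 note: 0% = growth equal to vehicle treated cultures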
RUN_CONDITIONS: S. cerevisiae cln2 rad14 strain, at 50.0 µM, active compounds read high
This is part of a sample that, as a whole, favours compounds with a hit. Of some 79,000 tested, about 15% had one in any assay.
TRUE means recorded growth inhibition is 40% or above; FALSE means it is below 40%.

Input line: Decide: growth inhibition of Fc1ccc(CSC(=S)Nc2ccc(F)cc2)cc1 >= 40%?
Output line: FALSE

Input line: Moving on to CCN1CCNc2c3cc(OC)ccc3nc3c([N+](=O)[O-])ccc1c23
Output line: FALSE

Input line: Moving on to O=C1C(N=Nc2ccccc2)=C(O)C2C3C=CC(C3)C12 (stereo not drawn)
Output line: TRUE

Input line: Moving on to O=C([O][Sb]([O]C(=O)C(Cl)(Cl)Cl)([c]1ccccc1)([c]1ccccc1)[c]1ccccc1)C(Cl)(Cl)Cl
Output line: FALSE

Input line: Moving on to COc1cc(C(c2ccccc2)c2ccccc2)c2ccccc2c1O
Output line: TRUE

Input line: Moving on to CC(C)C1=CC2=CCC3C(C)(C(=O)O)CCCC3(C)C2CC1 (stereo not drawn) (tested in a mixture with another compound)
Output line: TRUE

Input line: Moving on to COc1cccc(/C=C2\CCCc3ccccc3C2=O)c1
Output line: FALSE

Input line: Moving on to O=C(Nc1ccccc1)OCCN=c1c2ccccc2ccc2ccccc12
Output line: TRUE

###

Assign growth inhibition to each entry below.
PROTOCOL_SUMMARY: NCI Yeast Anticancer Drug Screen. Data for the mec2-1 strain (AID 157)
RUN_CONDITIONS: S. cerevisiae mec2-1 strain, at 50.0 µM (retest, dose inferred, filed as 5.0), active compounds read high
Procedure: Growth inhibition of yeast strains with defined genetic alterations is measured as a screen for potential anti-cancer activity. Selected strains with alterations in DNA damage repair or cell cycle control were exposed to compounds and growth inhibition was measured relative to vehicle treated controls. The strain used in this assay is mec2-1
About 79,000 compounds went through this panel and 15% of them were active in at least one assay; those are over-represented in the sample as a whole.
Just the number please, in %, no unit attached.

Input line: Please give the measured growth inhibition for this molecule: C=CCSc1nc2ccccc2c(=O)n1Cc1ccco1
Output line: 36

Input line: Moving on to O=[N+]([O-])C12CCCCC1([N+](=O)[O-])CCCC2 (configuration not stated)
Output line: 30

Input line: Moving on to O=C(NCC#CCO)C(F)(F)F
Output line: -18

Input line: Moving on to C=C1C(=O)O[C@@H]2CC(CO)=C([C@@H](C)CCCO)[C@@H](OC(=O)/C(C)=C\C)[C@H]12
Output line: 33

Input line: Moving on to COc1cc2c(cc1O)-c1c(cnn1-c1ccccc1)CCC2
Output line: 93

Input line: Moving on to Cc1cc(NC(=S)SCc2ccc(Cl)cc2)ccc1Br
Output line: 99

Input line: Moving on to CCCCc1[nH]ccc2c(C)c3nc4ccccc4c3cc12
Output line: 96

###

PROTOCOL_SUMMARY: NCI Yeast Anticancer Drug Screen. Data for the bub3 strain (AID 167)
RUN_CONDITIONS: S. cerevisiae bub3 mutant strain, at 50.0 µM, active compounds read high
The panel holds about 79,000 compounds, 15% with a hit somewhere; the sample as a whole holds those more often.
Assign growth inhibition to each entry below.
Just the number please, in %, no unit attached.

Input line: Please give the measured growth inhibition for this compound: CC1(C)CC(=O)C(c2ccccc2[N+](=O)[O-])=C(O)C1
Output line: 98.3

Input line: Moving on to [N-]=[N+]=Nc1c([N+](=O)[O-])c(Cl)nc2ccccc12
Output line: 90.6

Input line: Moving on to CC(Br)C(=O)c1ccc2cc(Cl)c3ccccc3c2c1 (stereo not given)
Output line: 67.8

Input line: Moving on to C[Si](C)c1cccc(Cl)c1
Output line: 7.55

Input line: Moving on to CCOC(=O)C1=C(c2ccccc2)N(C)c2ccccc2S1
Output line: 87

Input line: Moving on to CC(NNC(=S)N1CCCCCC1)c1cc2ccccc2cn1 (stereo not given)
Output line: 83.5

Input line: Moving on to CC(=O)Nc1ccc(C#N)c2ccccc12
Output line: 40.8

Input line: Moving on to Cc1ccc(S(=O)(=O)C(C#N)(CCC(=O)/C=C/c2ccccc2)CCC(=O)/C=C/c2ccccc2)cc1
Output line: -9.3

Input line: Moving on to O=Cc1[nH]c(=S)[nH]c(=O)c1CCCc1ccccc1
Output line: 85

Input line: Moving on to O=c1oc2ccccc2c(O)c1/C=N/C(=S)NCc1ccccc1
Output line: 78.3
